# STUDY_TARGET: T1, Monomeric 8-histidine tagged human EGFRvIII extracellular domain (human, UniProt P00533 298-645)
# T1 construct: Analyte in all SPR assays; not shown: 8-histidine tag
# PROTOCOL_DESCRIPTION: SPR, scFv-Fc captured by anti-human Fc, 37 C
MEASUREMENT_LABEL: koff (s⁻¹)
One number for each entry, in s⁻¹.

Go through the list and state koff for each entry.
1. 14C11.LH scFv-Fc protein (Fc fusion, LH: light-chain variable domain at the N-terminus; not shown: human IgG1 Fc moiety) EIVMTQSPATLSVSPGERATLSCRASQSVSNNLAWYQQKPGQAPRLLIYGASTRATGVPARFSGSDSGTEFSLTISSLQSEDFAVYFCQQYKDWPFTFGPGTKVEIKGGGGSGGGGSGGGGSGGGGSQVTLKESGPVLVKPTETLTLTCTVSGFSLNNARMGVSWIRQPPGKALEWFAHIFSTDEKSFRTSLRSRLTLSKDTSKSQVVLTMTNMDPVDTATYYCARDSSNYEGYFDYWGQGILVTVSS
2. 30D8.LH scFv-Fc protein (Fc fusion, LH: light-chain variable domain at the N-terminus; not shown: human IgG1 Fc moiety) DIVMTQSPLSLPVTPGEPASISCRSSQSLLHNKRNNYLDWFLQKPGQSPQLLIYLASNRASGVPDRFSGGGSGTDFTLKISRVEAEDVGVYYCMQAQQTPITFGQGTRLEIKGGGGSGGGGSGGGGSGGGGSEVQLVESGGGLVKPGGSLRLSCEASGFTFSDAWMSWVRQAPGKGLEWVGRIKSKTDGGTTDYVVPLNGRFIISRDDSRNTLYLQLNNLKTEDTAVYYCTTVPGSYGYWGQGTLVTVSS
3. 42G9.HL scFv-Fc protein (Fc fusion, HL: heavy-chain variable domain at the N-terminus; not shown: human IgG1 Fc moiety) QVTLKESGPVLLKPTETLTLTCTVSGFSLSNPRMGVSWIRQPPGKALEWFAHIFSTDEKSLKLSLRSRLTLSKDTSKSQVVLTMTNMAPVDSATYYCARDSSNYEGYFDFWGQGTLVTVSSGGGGSGGGGSGGGGSGGGGSEVVLTQSPATLSVSPGERATLSCRASQSVRSNLAWYQQKSGQAPRLLIYGSTIRATGVPARFSGSGSGTEFTLTISSLQSEDFAVYYCQQYSDWPFTFGPGTKVDIK

[0.0065, 0.038, 0.0011]
